Numbers sourced from paper PMC12196494.

experimental details: Solubility studies in lipid-based formulations (MCT, LCM) at different temperatures
Type: physicochemical
run conditions: medium-chain triglyceride (Labrafac Lipophile WL1349), oil or lipid, thermodynamic from solid; medium-chain triglyceride; ambient temperature (~21 °C); n = 3, mean ± SD; read-out: Solubility MCT
quantity kind: solubility
Quote the value and follow it with the unit of measurement.

**Query** Tell me solubility reported for Cc1ccc(-c2cc(C(F)(F)F)nn2-c2ccc(S(N)(=O)=O)cc2)cc1 [Celecoxib, celecoxib]
**Result** 7720 µg/mL

----------
experimental details: Solubility studies in lipid-based formulations (MCT, LCM) at different temperatures
Assay type: physicochemical
run conditions: long-chain monoglyceride (Maisine CC), oil or lipid, thermodynamic from solid; Maisine CC; ambient temperature (~21 °C); n = 3, mean ± SD; read-out: Solubility LCM
quantity kind: solubility (mg/mL)
One number for each entry, in mg/mL.

**Query** Tell me solubility reported for Cc1ccc(-c2cc(C(F)(F)F)nn2-c2ccc(S(N)(=O)=O)cc2)cc1 [Celecoxib, celecoxib]
**Result** 10.3
